Target: T1, yPolη full-length (Saccharomyces cerevisiae, UniProt Q04049 1-632)
T1 sequence: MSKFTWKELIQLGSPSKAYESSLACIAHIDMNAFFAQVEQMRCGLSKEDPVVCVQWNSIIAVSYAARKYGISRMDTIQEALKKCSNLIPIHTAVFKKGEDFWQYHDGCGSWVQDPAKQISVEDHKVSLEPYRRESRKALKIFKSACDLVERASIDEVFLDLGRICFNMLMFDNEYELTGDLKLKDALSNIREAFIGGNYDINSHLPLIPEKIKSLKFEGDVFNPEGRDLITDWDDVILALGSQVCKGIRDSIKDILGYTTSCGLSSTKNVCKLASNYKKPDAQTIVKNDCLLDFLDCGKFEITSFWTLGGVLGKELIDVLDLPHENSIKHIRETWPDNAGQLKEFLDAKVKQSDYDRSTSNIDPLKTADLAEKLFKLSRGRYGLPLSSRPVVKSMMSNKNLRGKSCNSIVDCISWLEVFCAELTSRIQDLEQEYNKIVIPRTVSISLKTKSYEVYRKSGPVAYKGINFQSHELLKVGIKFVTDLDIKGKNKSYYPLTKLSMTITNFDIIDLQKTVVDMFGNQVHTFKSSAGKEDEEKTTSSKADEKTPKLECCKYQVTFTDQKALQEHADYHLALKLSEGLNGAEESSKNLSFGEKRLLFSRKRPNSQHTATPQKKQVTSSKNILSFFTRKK
Test: EMSA; koff 0.0041 ± 0.0008 s-1 (DNA trap); 23°C, buffer A (composition not in material; without BSA for fluorescence); EMSA 10 nM DNA, 10-450 nM protein, 20 min, 4.5% native gel, 40 mM Tris in running bu
Observation type: pKd
Scale for pKd: -log10 of concentration given in mol/L; no unit attached.

# input binder: D-1 21/41-mer (dsDNA) DNA 1: CGCAGCCGTCCAACCAACTCA DNA 2: GGACGGCATTGGATCGACGATGAGTTGGTTGGACGGCTGCG ; wanted: its pKd
7.80
